test: chemical genetic growth profiling, strain panel (AID 1159580);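 also: tested at 20 µM; growth read once vehicle control cultures reached saturation at 30 °C; 1 = growth at the plate median or of vehicle wells; lower values mean less growth of the strain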; conditions: S. cerevisiae deletion strains, growth OD, locus YLL026W, stronger effect = lower value
Hit rate of the full screen: of about 5,500 compounds, about 2,000 (36%) were called active. Inconclusive results (about 18%) are left out. Some of the results follow.
normalized growth values for the molecules below.
Field format: numeric only.

{"molecule": "Nc1c(Br)cc(Br)cc1CNC1CCC(O)CC1 (stereo not drawn)", "assay-result": 1.01}
{"molecule": "O=C(O)c1cc(=O)c2c(OCC(O)COc3cccc4oc(C(=O)O)cc(=O)c34)cccc2o1", "assay-result": 0.991}
{"molecule": "COc1ccc(C=CC(=O)c2ccc(O)cc2O)cc1OC", "assay-result": 0.914}
{"molecule": "C[C@@H]1CC2C3CCC4=CC(=O)C=C[C@]4(C)[C@@]3(F)[C@@H](O)C[C@]2(C)[C@@]1(O)C(=O)COP(=O)(O)O (stereo partly drawn)", "assay-result": 0.986}

Notebook: C=CCN1CC[C@]23c4c5ccc(O)c4OC2C(=O)CC[C@@]3(O)[C@H]1C5 (stereo partly drawn) , normalized growth read as 0.988

c1cc2c(cc1[C@H]1OC[C@H]3[C@@H]1CO[C@H]3c1ccc3c(c1)OCO3)OCO2 has a reported normalized growth of 0.922

The recorded normalized growth for c1ccc2[nH]c(-c3cscn3)nc2c1 is 1.01

The measured normalized growth associated with C[C@H](COc1ccccc1)N[C@H](C)[C@H](O)c1ccc(O)cc1 reads 1.01

# molecule CC1=CC(=O)CC(C)(C)C1(O)/C=C/C(C)=C\C(=O)O (stereo not drawn) ; its normalized growth = 1.02

response.value for COc1cc(/C=C/C(=O)O)ccc1O (field: normalized growth) = 1.01

The measured normalized growth associated with CCOC(=O)C(C)(N)Cc1ccc(O)c(O)c1 (stereo not drawn) reads 0.971

Per the record, O=c1cccc2n1C[C@H]1CNCC2C1 has normalized growth of 1.01

# normalized growth (molecule: CCOc1ccc2c(c1)C(C)=CC(C)(C)N2 ) is 0.986

Entry COc1ccc(/C=C/C(=O)O)cc1OC , normalized growth reported as 0.997

The measured normalized growth associated with CC(COc1ccccc1)N(CCCl)Cc1ccccc1 (stereo not drawn) reads 0.976

// recorded normalized growth for C[C@](N)(Cc1ccc(O)c(O)c1)C(=O)O : 0.984

* * *

test: chemical genetic growth profiling, strain panel (AID 1159580);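 also: tested at 20 µM; growth read once vehicle control cultures reached saturation at 30 °C; 1 = growth at the plate median or of vehicle wells; lower values mean less growth of the strain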; details: S. cerevisiae deletion strains, growth OD, locus YOR080W, strain dia2, stronger effect = lower value
Screen size: about 5,500 compounds; about 2,000 (36%) were called active. Not shown: some 18% with an inconclusive outcome. The list shows a part of the results.
normalized growth reference
The answer should be a number; do not append a unit.

CN(Cc1cnc2nc(N)nc(N)c2n1)c1ccc(C(=O)NC(CCC(=O)O)C(=O)O)cc1 (stereo unspecified) has a reported normalized growth of 0.902

Record summary for Nc1nc2ncc(CNc3ccc(C(=O)N[C@@H](CCC(=O)O)C(=O)O)cc3)nc2c(=O)[nH]1 : reported normalized growth = 1

Record C[C@@H]1CC2C3CCC4=CC(=O)C=C[C@]4(C)[C@@]3(F)[C@@H](O)C[C@]2(C)[C@@]1(O)C(=O)COP(=O)(O)O (stereo partly specified) . Reported normalized growth: 0.94

The compound listed as O=C(NC(Cc1cc(=O)[nH]c2ccccc12)C(=O)O)c1ccc(Cl)cc1 (stereo unspecified) shows normalized growth equal to 0.998

Lookup result for CC1(C)C2CC(=O)O[C@@]3(C)C4=CC(=O)O[C@@H](c5ccoc5)[C@]4(C)CCC3[C@@]2(C)C=C[C@H]1O (stereo partly specified) ; measured normalized growth: 0.963

Reported normalized growth of O=C(O)c1cc(=O)c2c(OCC(O)COc3cccc4oc(C(=O)O)cc(=O)c34)cccc2o1 : 0.968
